Numbers sourced from patent EP4700025A1.

ASSAYED_TARGET: CYP450 3A4 (Homo sapiens)
Construct: from tissue; host or cells: human liver microsomes
ASSAY_PROCEDURE: Inhibition of human liver microsome CYP450 enzyme 3A4
Format: in vitro ADME
STUDY_CONDITIONS: human, microsomes, pH 7.4
Procedure: 100 mM K-Buffer: 9.5 mL of stock solution A was mixed with 40.5 mL of stock solution B, the total volume was adjusted to 500 mL with ultrapure water, and the buffer was titrated to pH 7.4 with KOH or H3PO4. • Starting material A (1 M potassium dihydrogen phosphate): 136.5 g of potassium dihydrogen phosphate in 1 L of water; • Stock solution B ([…]): 174.2 g of potassium dihydrogen phosphate in 1 L of water. […]
PROPERTY: IC50

See these solved cases before continuing.
Cn1ncc2c(N)nc3cnc(C(=O)N4CCOC[C@@H]4c4ccc5c(c4)OC(F)(F)O5)cc3c21 [Example I-38] = > 10 µM
Cn1ncc2c(N)nc3cc(F)c(C(=O)N4CCOC[C@@H]4c4ccc5c(c4)OC(F)(F)O5)cc3c21 [Example I-7] = > 10 µM

Incoming: // lookup IC50 for Cn1ncc2c(N)nc3cnc(C(=O)N(Cc4ccc5c(c4)OC(F)(F)O5)C4CC4)cc3c21 [Example I-37]
Outgoing: > 10 µM

----------
ASSAY_PROCEDURE: Pharmacokinetic assay in rats
Format: in vivo, SD rats
STUDY_CONDITIONS: SD, plasma, 10 mg/kg; rat, PO 10mpk
AUC(0-t) values for the compounds below.
The reply should contain only the number, in µM·h.

CN(Cc1ccc2c(c1)OC(F)(F)O2)C(=O)c1ccc2nc(N)c3cnn(C)c3c2c1 = 14.8

Would you kindly look at the next entry?
Incoming: // lookup AUC(0-t) for `Cn1ncc2c(N)nc3cc(F)c(C(=O)N(Cc4ccc5c(c4)OC(F)(F)O5)C4CC4)cc3c21`
Outgoing: 9.06

----------
ASSAY_PROCEDURE: Pharmacokinetic assay in rats
Format: in vivo, SD rats
STUDY_CONDITIONS: plasma, 0.2 mg/kg; rat, IV 0.2mpk
PROPERTY: C0 (nM)
The reply should contain only the number, in nM.

Incoming: // lookup C0 for Cn1ncc2c(N)nc3cc(F)c(C(=O)N4CCOC[C@@H]4c4ccc5c(c4)OC(F)(F)O5)cc3c21 [Example I-7]
Outgoing: 176

----------
Tested on: SDMA
ASSAY_PROCEDURE: SDMA Inhibition Assay in HCT-116 cells
Assay type: cell-based
STUDY_CONDITIONS: Homo sapiens, HCT-116, 96 hours
PROPERTY: EC50 (nM)
The reply should contain only the number, in nM.

See these solved cases before continuing.
Cn1ncc2c(N)nc3cnc(C(=O)N4CCCC[C@@H]4c4ccc5c(c4)OC(F)(F)O5)cc3c21 [Example I-111] = 254
CN(Cc1ccc2c(c1)OC(F)(F)O2)C(=O)c1cc2c(cc1F)nc(N)c1cnn(C)c12 [Example I-1] = 220
Cn1ncc2c(N)nc3cc(F)c(C(=O)N4CCOCC4c4ccc5c(c4)OC(F)(F)O5)cc3c21 (stereo not shown) [Example I-3] = 101
Cn1ncc2c(N)nc3cc(F)c(C(=O)N4CCOC[C@@H]4c4ccc5c(c4)OC(F)(F)O5)cc3c21 [Example I-7] = 181
CN(Cc1ccc2c(cnn2C)c1)C(=O)c1cc2c(cc1F)nc(N)c1cnn(C)c12 [Example I-18] = 1020
Cn1ncc2c(N)nc3cnc(C(=O)N4CCN(C5(C)CC5)CC4c4ccc5c(c4)OC(F)(F)O5)cc3c21 (racemic) [Example I-113] = 403
Cn1ncc2c(N)nc3cc(C#N)c(C(=O)N4CCOC[C@@H]4c4ccc5c(c4)OC(F)(F)O5)cc3c21 [Example I-53] = 68.7
Cn1ncc2c(N)nc3cc(F)c(C(=O)N(CCN4CCOCC4)Cc4ccc5c(c4)OC(F)(F)O5)cc3c21 [Example I-21] = 292
Cn1ncc2c(N)nc3cc(F)c(C(=O)N(Cc4ccc5c(c4)OC(F)(F)O5)C[C@H]4COCCO4)cc3c21 [Example I-30] = 125
Cn1ncc2c(N)nc3cc(F)c(C(=O)N(Cc4ccc5c(c4)OC(F)(F)O5)C4CC4)cc3c21 [Example I-16] = 201

Incoming: // lookup EC50 for CC1OCc2c1c(N)nc1cc(F)c(C(=O)N3CCOC[C@@H]3c3ccc4c(c3)OC(F)(F)O4)cc21 (stereo partly shown) [Example I-34]
Outgoing: 293

Incoming: Entry to check: Cn1ncc2c(N)nc3cnc(C(=O)N(Cc4ccc5c(c4)OC(F)(F)O5)C4CC4)cc3c21 [Example I-37]
Outgoing: 205

Incoming: Entry to check: Cn1ncc2c(N)nc3cnc(C(=O)N4CCN(C5CC5)CC4c4ccc5c(c4)OC(F)(F)O5)cc3c21 (racemic) [Example I-112]
Outgoing: 285

Incoming: Entry to check: Cn1ncc2c(N)nc3cc(F)c(C(=O)N(Cc4ccc5c(c4)OC(F)(F)O5)C4COC4)cc3c21 [Example I-29]
Outgoing: 292

Incoming: Entry to check: Cn1ncc2c(N)nc3ccc(C(=O)N(Cc4ccc5c(c4)OC(F)(F)O5)C4CC4)cc3c21 [Example I-15]
Outgoing: 628

----------
ASSAYED_TARGET: CYP450 2C19 (Homo sapiens)
Construct: from tissue; host or cells: human liver microsomes
Sequence (P33261 whole entry): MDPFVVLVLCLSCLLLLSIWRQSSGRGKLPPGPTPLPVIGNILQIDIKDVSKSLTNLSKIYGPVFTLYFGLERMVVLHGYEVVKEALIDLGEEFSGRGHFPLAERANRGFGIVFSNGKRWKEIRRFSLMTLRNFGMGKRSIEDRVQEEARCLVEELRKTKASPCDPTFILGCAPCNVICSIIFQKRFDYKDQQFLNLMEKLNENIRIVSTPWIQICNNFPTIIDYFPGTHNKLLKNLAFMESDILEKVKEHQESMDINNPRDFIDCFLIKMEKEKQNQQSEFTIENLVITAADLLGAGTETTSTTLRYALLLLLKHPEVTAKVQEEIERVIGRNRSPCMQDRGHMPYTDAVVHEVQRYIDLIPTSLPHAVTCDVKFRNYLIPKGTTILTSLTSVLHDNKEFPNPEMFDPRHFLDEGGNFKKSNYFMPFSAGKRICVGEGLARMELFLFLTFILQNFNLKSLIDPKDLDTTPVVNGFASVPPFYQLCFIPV
ASSAY_PROCEDURE: Inhibition of human liver microsome CYP450 enzyme 2C19
Assay type: in vitro ADME
STUDY_CONDITIONS: human, microsomes, pH 7.4
pIC50: −log10 of the molar value.
PROPERTY: pIC50

Incoming: // lookup pIC50 for `Cn1ncc2c(N)nc3cc(F)c(C(=O)N4CCOC[C@@H]4c4ccc5c(c4)OC(F)(F)O5)cc3c21`
Outgoing: < 5.00

----------
ASSAYED_TARGET: PRMT5 (Homo sapiens)
Sequence (O14744 whole entry): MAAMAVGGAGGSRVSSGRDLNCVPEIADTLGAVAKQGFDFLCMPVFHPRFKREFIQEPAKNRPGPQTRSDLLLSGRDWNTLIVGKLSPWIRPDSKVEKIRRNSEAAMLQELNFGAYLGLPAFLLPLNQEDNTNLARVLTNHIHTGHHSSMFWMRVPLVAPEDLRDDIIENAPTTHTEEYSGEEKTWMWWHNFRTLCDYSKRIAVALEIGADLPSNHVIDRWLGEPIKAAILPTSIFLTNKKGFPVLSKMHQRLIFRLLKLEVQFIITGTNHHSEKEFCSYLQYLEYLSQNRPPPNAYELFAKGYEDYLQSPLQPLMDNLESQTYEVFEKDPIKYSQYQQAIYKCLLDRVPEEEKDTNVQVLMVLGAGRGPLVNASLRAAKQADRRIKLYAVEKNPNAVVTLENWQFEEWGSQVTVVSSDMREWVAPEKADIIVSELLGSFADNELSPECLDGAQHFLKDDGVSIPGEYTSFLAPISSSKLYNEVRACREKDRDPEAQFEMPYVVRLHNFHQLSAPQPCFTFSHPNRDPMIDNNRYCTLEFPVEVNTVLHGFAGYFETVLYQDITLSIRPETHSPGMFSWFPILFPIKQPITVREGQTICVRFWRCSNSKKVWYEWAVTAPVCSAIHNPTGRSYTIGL
Sequence (Q9BQA1 whole entry partner): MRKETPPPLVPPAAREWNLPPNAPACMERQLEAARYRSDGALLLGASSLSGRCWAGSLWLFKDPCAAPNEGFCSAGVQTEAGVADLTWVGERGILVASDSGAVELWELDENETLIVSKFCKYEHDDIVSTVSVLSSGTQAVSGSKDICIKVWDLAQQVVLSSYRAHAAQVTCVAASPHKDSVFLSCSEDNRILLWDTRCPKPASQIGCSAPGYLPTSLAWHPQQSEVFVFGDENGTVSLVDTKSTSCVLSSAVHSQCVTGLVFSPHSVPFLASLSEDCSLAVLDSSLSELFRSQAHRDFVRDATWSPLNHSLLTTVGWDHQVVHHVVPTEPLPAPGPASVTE
pIC50 values for the compounds below.
Would you please state pIC50, meaning minus log10 of the concentration in mol/L, as a bare number?

See these solved cases before continuing.
Cn1ncc2c(N)nc3cc(F)c(C(=O)N4CCOC[C@@H]4c4ccc5c(c4)OC(F)(F)O5)cc3c21 = 7.55
Cn1ncc2c(N)nc3cc(F)c(C(=O)N(Cc4ccc5c(c4)OC(F)(F)O5)C4CC4)cc3c21 = 7.46

Incoming: // lookup pIC50 for `CN(Cc1ccc2c(c1)OC(F)(F)O2)C(=O)c1cc2c(cc1F)nc(N)c1cnn(C)c12`
Outgoing: 7.31

----------
ASSAY_PROCEDURE: Pharmacokinetic assay in mice
Type: in vivo, Balb/c mice
STUDY_CONDITIONS: male, Balb/c, plasma, 2 mg/kg; mouse, IV 2mpk; read-out: Vz
PROPERTY: Vd
Field: value (include unit after the number)

See these solved cases before continuing.
CCN(Cc1ccc2c(c1)OC(F)(F)O2)C(=O)c1ccc2nc(N)c3cnn(C)c3c2c1 = 4.4 L/kg
CN(Cc1ccc2c(c1)OC(F)(F)O2)C(=O)c1ccc2nc(N)c3cnn(C)c3c2c1 = 4.7 L/kg
CN(Cc1ccc2c(c1)OC(F)(F)O2)C(=O)c1cc2c(cc1F)nc(N)c1cnn(C)c12 = 2 L/kg

Would you kindly look at the next entry?
Incoming: // lookup Vd for `Cn1ncc2c(N)nc3cc(F)c(C(=O)N(Cc4ccc5c(c4)OC(F)(F)O5)C4CC4)cc3c21`
Outgoing: 4.3 L/kg

----------
ASSAYED_TARGET: CYP450 3A4 (Homo sapiens, UniProt P08684)
Construct: from tissue; host or cells: human liver microsomes
Sequence (P08684 whole entry): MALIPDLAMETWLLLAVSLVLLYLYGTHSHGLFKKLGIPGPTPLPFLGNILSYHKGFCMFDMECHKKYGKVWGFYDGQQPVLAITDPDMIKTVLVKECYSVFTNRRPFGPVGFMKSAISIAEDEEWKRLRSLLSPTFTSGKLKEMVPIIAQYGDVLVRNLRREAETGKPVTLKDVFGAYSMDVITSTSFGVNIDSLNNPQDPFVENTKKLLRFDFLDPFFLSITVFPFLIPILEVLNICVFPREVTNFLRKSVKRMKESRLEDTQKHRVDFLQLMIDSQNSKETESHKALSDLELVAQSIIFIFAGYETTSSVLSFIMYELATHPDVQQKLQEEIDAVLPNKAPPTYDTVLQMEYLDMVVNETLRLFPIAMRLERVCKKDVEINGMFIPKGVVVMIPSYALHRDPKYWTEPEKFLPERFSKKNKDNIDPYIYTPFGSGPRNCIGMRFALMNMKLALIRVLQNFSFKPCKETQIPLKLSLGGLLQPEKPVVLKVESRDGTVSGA
ASSAY_PROCEDURE: Inhibition of human liver microsome CYP450 enzyme 3A4
Assay type: in vitro ADME
STUDY_CONDITIONS: human liver microsomes, 3A4; read-out: IC50
Procedure: 100 mM K-Buffer: 9.5 mL of stock solution A was mixed with 40.5 mL of stock solution B, the total volume was adjusted to 500 mL with ultrapure water, and the buffer was titrated to pH 7.4 with KOH or H3PO4. • Starting material A (1 M potassium dihydrogen phosphate): 136.5 g of potassium dihydrogen phosphate in 1 L of water; • Stock solution B ([…]): 174.2 g of potassium dihydrogen phosphate in 1 L of water. […]
pIC50: −log10 of the molar value.
PROPERTY: pIC50

Incoming: // lookup pIC50 for Cn1ncc2c(N)nc3cc(F)c(C(=O)N(Cc4ccc5c(c4)OC(F)(F)O5)C4CC4)cc3c21 [Example I-16]
Outgoing: < 5.00

----------
ASSAY_PROCEDURE: Pharmacokinetic assay in mice
Assay type: in vivo, Balb/c mice
STUDY_CONDITIONS: mouse, IV 2mpk
PROPERTY: R_AUC(t/∞) (%)
The reply should contain only the number, in %.

See these solved cases before continuing.
Cn1ncc2c(N)nc3cc(F)c(C(=O)N4CCOC[C@@H]4c4ccc5c(c4)OC(F)(F)O5)cc3c21 = 95.1
CN(Cc1ccc2c(c1)OC(F)(F)O2)C(=O)c1ccc2nc(N)c3cnn(C)c3c2c1 = 85.8
Cn1ncc2c(N)nc3cc(F)c(C(=O)N(Cc4ccc5c(c4)OC(F)(F)O5)C4CC4)cc3c21 = 97.9
CCN(Cc1ccc2c(c1)OC(F)(F)O2)C(=O)c1ccc2nc(N)c3cnn(C)c3c2c1 = 91.7

Would you kindly look at the next entry?
Incoming: // lookup R_AUC(t/∞) for `CN(Cc1ccc2c(c1)OC(F)(F)O2)C(=O)c1cc2c(cc1F)nc(N)c1cnn(C)c12`
Outgoing: 95.8
